System: CD4+ clone 436/B6.37 (B6/37)
test_summary: IFN-γ/TNF production by CD4+ clone B6/37 (clone 37) stimulated with peptide- or protein-pulsed EBV-B cells
Type: cell-based, human
quantity_kind: activation of clone B6/37 by 16 amino acid peptides

substance: MAGE-A3107-122: 16 amino acid synthetic peptide corresponding to residues 107-122 of the MAGE-A3 protein (AALSRKVAELVHFLLL; UniProt P43357 107-122, looked up, fragment)
assayed_system: CD4+ clone 436/B6.37 (B6/37)
result: unable to activate
--
substance: RKVAELVHFLLLKYRA (listed as Homo sapiens) [MAGE-A3111-126]
assayed_system: CD4+ clone 436/B6.37 (B6/37)
result: stimulated specifically
--
substance: FLLLKYRAREPVTKAE (listed as Homo sapiens) [MAGE-A3119-134]
assayed_system: CD4+ clone 436/B6.37 (B6/37)
result: unable to activate
--
substance: ELVHFLLLKYRAREPV (listed as Homo sapiens) [MAGE-A3115-130]
assayed_system: CD4+ clone 436/B6.37 (B6/37)
result: stimulated specifically
